Cited source for all entries: the OligoGym collection

Listed sequences paired with reported sensor-assay potency score (higher = more potent)
Molecular target: FANCL; also: reference of the scale not given here
Experiment: pooled miR-30 sensor sort-seq; sequence = guide strand
Details: shRNA
Just the number, please.

# count of solved cases: 3
>  <macromolecule sequence>
TTCTGCAGGATACTTTGCCTTC

>  <value observed>
-0.558

$$$$
>  <macromolecule sequence>
TAATAATCTTGCATTCTTCAGT

>  <value observed>
-0.383

$$$$
>  <macromolecule sequence>
TTAGTGAAGAGACAAACGCAGA

>  <value observed>
-1.17

$$$$

Give the measured sensor-assay potency score (higher = more potent) of TTAGTGATTCTATTGCTGCCAA .
0.323

Query (sequence): TACAATATGGACATTCACCAAA ; field requested: sensor-assay potency score (higher = more potent)
-0.784

Fill in: sensor-assay potency score (higher = more potent) of TAAGGTGGAAGTCTCTTCCCTG is ___
0.0592

I'd like to know its sensor-assay potency score (higher = more potent). The sequence in question is TTATGGAAACATTATTACCTAA
-1.18

sensor-assay potency score (higher = more potent) for TAAAACTCTGTCTACTAGTTAG ?
-1.39
